meta.source: patent US6737383B1

tested on: surinam grass; experiment: Test B pre/postemergence surinam grass; format: in vivo, Brachiaria decumbens; conditions: Preemergence, Rate 250 g/ha; scale 0 to 10, 0 is no effect, 10 is complete control
Value Type: B. signalgrass plant response rating

Compound | Value Type | Observed
Cc1ccccc1-n1c(=O)on(C(=O)N(c2ccc(Br)cc2)C(C)C)c1=O [Compound 175] | B. signalgrass plant response rating | 0
CC(C)N(C(=O)n1oc(=O)n(CO)c1=O)c1ccc(F)cc1 [Compound 470] | B. signalgrass plant response rating | 4
C=C(C)CCn1c(=O)on(C(=O)N(c2ccc(F)cc2)C(C)C)c1=O [Compound 199] | B. signalgrass plant response rating | 6
Cc1nc(C)c(Cn2c(=O)on(C(=O)N(c3ccc(F)cc3)C(C)C)c2=O)s1 [Compound 232] | B. signalgrass plant response rating | 1
CC(C)N(C(=O)n1oc(=O)n(C(C)C(=O)c2ccccc2)c1=O)c1ccc(F)cc1F (stereo not drawn) [Compound 511] | B. signalgrass plant response rating | 0

# context switch: different compound, same B. signalgrass plant response rating
Recorded result, C#CCn1c(=O)on(C(=O)N(c2ccc(F)cc2)C(C)C)c1=O [Compound 212] , B. signalgrass plant response rating: 5
